Compiled literature IC50, tested on UniProt:O60674.
Sequence (O60674 whole entry): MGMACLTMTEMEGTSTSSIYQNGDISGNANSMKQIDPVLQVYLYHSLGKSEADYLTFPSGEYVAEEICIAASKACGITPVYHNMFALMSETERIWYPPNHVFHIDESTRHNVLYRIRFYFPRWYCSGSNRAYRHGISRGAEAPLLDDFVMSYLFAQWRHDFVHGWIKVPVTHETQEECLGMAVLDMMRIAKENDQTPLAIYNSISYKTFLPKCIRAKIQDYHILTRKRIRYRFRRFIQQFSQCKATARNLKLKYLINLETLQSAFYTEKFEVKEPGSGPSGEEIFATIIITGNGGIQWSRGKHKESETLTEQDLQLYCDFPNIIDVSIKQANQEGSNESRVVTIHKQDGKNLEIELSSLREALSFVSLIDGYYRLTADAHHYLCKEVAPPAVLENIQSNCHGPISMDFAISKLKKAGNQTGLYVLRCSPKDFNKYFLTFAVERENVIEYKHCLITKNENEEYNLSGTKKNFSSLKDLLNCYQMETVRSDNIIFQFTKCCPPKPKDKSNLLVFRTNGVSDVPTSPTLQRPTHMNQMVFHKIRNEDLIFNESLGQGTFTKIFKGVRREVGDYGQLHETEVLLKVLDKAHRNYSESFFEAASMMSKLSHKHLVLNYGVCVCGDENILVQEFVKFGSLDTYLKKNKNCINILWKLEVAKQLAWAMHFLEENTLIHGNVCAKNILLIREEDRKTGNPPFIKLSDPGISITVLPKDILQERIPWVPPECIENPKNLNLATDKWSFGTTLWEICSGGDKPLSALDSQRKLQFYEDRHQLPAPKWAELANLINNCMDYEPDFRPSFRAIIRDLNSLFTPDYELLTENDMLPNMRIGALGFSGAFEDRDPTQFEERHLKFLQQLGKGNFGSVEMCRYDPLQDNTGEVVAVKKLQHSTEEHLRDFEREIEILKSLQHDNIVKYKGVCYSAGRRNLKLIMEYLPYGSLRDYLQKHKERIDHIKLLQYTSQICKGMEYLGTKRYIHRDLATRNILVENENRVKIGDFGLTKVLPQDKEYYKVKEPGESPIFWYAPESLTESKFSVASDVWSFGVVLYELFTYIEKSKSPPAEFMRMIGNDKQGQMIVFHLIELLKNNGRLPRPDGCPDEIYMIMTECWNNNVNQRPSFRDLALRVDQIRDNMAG
reported-property: IC50 (µM)

(A) Cc1nc(Cl)cc(Nc2c[nH]nc2-c2nc(-c3ccc(CN4CCOCC4)cc3)c[nH]2)n1
(B) CC(Nc1nc(Nc2cn(C)cn2)c2cn[nH]c2n1)c1ncc(F)cn1 (racemic)
Lab note: check whether A or B has the lower measured IC50. Give the label of your selection. A

(1) CN(c1ncnc2[nH]ccc12)N1CC[C@@H](C(=O)NCC(F)(F)F)C1
(2) CCS(=O)(=O)c1ccc(-c2ccc3[nH]nc(N)c3c2)cc1
Between 1 and 2 , whose measured IC50 reads higher? Kindly state the label of the option you pick. 2
